test system: NCI/ADR-RES ovarian; experiment: NCI-60 one-dose screen, 48 h; settings: 10 µM unless noted
The panel holds about 83,000 compounds, 20% with a hit somewhere; the sample as a whole holds those more often. Active and inactive are the calls of the source. The calls were made as follows: active = growth percent below 10; inactive = the rest.
The reply should be one of these categories: active, inactive

Below are worked cases with known answers.
{"columns": ["compound", "class"],
 "data": [
  ["O=C1C(=O)c2c(nc3ccc(Br)cn23)-c2ccccc21", "active"],
  ["COc1ccc(C(=O)c2cc(F)c(F)c(OC)c2F)cc1OC(=O)CCl", "inactive"],
  ["Cc1nn(-c2ccc(-c3ccc(OC(F)(F)F)cc3)cc2)c2nc(-c3ccccc3)nc(N)c12", "inactive"],
  ["COc1cc(NC(=O)Nc2cnc(Nc3ccc(N4CCOCC4)cc3)nc2Oc2ccc(C(F)(F)F)cc2)cc(OC)c1", "inactive"],
  ["CCOC(=O)/C=C1\\SC(=Nc2ccc(C#N)cc2)N(CCN2C(=O)/C(=C/C(=O)OCC)SC2=Nc2ccc(C#N)cc2)C1=O", "inactive"],
  ["Cc1ccc2nc3nc4ccc[nH]c4cc3c2c1", "inactive"],
  ["CCO/C=N/S(=O)(=O)c1cc2c(cc1Cl)NC=NS2(=O)=O", "inactive"],
  ["Cc1cccc(NC(=O)c2sc3nc4c(cc3c2N)CN(Cc2ccccc2)CC4)c1C", "inactive"],
  ["COc1ccccc1Nc1nnc(-c2ccc(Cl)cc2)o1", "inactive"],
  ["CC(C)(C#N)c1cc(F)cc(C(=O)Nc2cc(Nc3ncccc3-c3ncnc4nc[nH]c34)ccc2F)c1", "inactive"]
]}

Fill in: this test's call for O=C1Nc2ccccc2C12C=C(c1ccccc1)Nc1c2c(-c2ccccc2)nn1-c1ccccc1 (centres undefined) is ___
inactive

Fill in: this test's call for `COC(=O)c1cncc(C(=O)Nc2ccc(-n3cnc4ccccc43)cc2)c1` is ___
inactive

Fill in: this test's call for `Nc1cc(N)c(S(=O)(=O)O)cc1N=Nc1cc([N+](=O)[O-])ccc1O` is ___
inactive

Fill in: this test's call for `C(=C\c1cn(-c2ccccc2)nc1-c1ccccc1)/c1nnc(-c2c[nH]c3ccccc23)o1` is ___
inactive

Fill in: this test's call for `O=C1C(Cl)=C(NCCCN(CCCNC2=C(Cl)C(=O)c3ccccc3C2=O)C2=C(Cl)C(=O)c3ccccc3C2=O)C(=O)c2ccccc21` is ___
inactive

---

test system: SK-MEL-28 melanoma; assay: NCI-60 one-dose screen, 48 h (100 = growth as untreated, 0 = no growth, -100 = all killed); conditions: 10 µM unless noted
Compounds without any hit were thinned out: in the full panel of roughly 83,000, 20% have a hit.
Entries and their growth values follow.
Answer with a number only, understood to be in %.

{"columns": ["compound", "target-or-system", "result-units", "growth"],
 "data": [
  ["COc1ccc2c(c1)OC13Oc4cc(OC)ccc4C=C1CCCCC3=C2", "SK-MEL-28 melanoma", "%", 111],
  ["S=C(Nc1ccc(Cl)cc1)c1ccccn1", "SK-MEL-28 melanoma", "%", 107],
  ["N#C/C(=C/c1ccc(O)c([N+](=O)[O-])c1)c1nc(-c2ccc([N+](=O)[O-])cc2)cs1", "SK-MEL-28 melanoma", "%", 35.5],
  ["Cn1nc(C(F)(F)F)c(-c2cc(C(F)(F)F)cc(C(F)(F)F)c2)c1-c1ccc(OCc2ccc(Cl)cc2)cc1O", "SK-MEL-28 melanoma", "%", 28],
  ["N#CC1C(c2ccc(Cl)cc2)=Nc2c(c(-c3ccccc3)nn2-c2ccccc2)C12C(=O)Nc1ccc(Cl)cc12 (stereo not given)", "SK-MEL-28 melanoma", "%", 52]
]}

Bench note: what growth did `COc1cc2c(Nc3ccc(NC(=O)Nc4ccc(Cl)c(C(F)(F)F)c4)c(Cl)c3)ncnc2cc1OCCCN1CCN(C)CC1` show?
36.1

Bench note: what growth did O=c1c2ccccc2n(CC(O)CN2CCCC2)c2c(Br)cccc12 (stereo not given) show?
96.9

Bench note: what growth did `CCOC(=O)C1CCN(S(=O)(=O)/N=C2/NC(=O)NC2=C(Cl)Cl)CC1` show?
-8.67

Bench note: what growth did `CCCCCOC(=O)c1ccccc1O` show?
110
